B1: Gamma-crystallin D, residues 90 to 170; numbered along this chain, P07320 (parent)
chain: IRLYEREDYRGQMIEFTEDCSCLQDRFRFNEIHSLNVLEGSWVLYELSNYRGRQYLLMPGDYRRYQDWGATNARVGSLRRV

Variants of: B1
Assay: abundance fitness (aPCA) (normalised: wild type 0, dead -1); higher = more abundant; growth selection in yeast, the domain comes from the species named
Details: Homo sapiens
assay-endpoint: abundance fitness
// no unit string in output, number only

For record S48C the listed abundance fitness is 0.009

For record Y9K the listed abundance fitness is 0.001

For record N30V the listed abundance fitness is 0.143

For record W42C the listed abundance fitness is -0.272

For record Q12D the listed abundance fitness is -0.019

For record Q24E the listed abundance fitness is 0.029
